Please respond with reported half-life for every item in the list.
Test: Hydrolysis of [3H]UTP and [3H]UDP on human nasal epithelial cell surfaces
Assay type: in vitro ADME
Conditions: human, pH 7.4; mucosal, time course; read-out: Half life (t½)
Please state the figure in min; there is no need to write the unit.

In: So what does the record say about half-life for O=c1ccn([C@@H]2O[C@H](COP(=O)(O)OP(=O)(O)O)[C@@H](O)[C@H]2O)c(=O)[nH]1 [[^3H]UDP] ?
Out: 27

In: Also O=c1ccn([C@@H]2O[C@H](COP(=O)(O)OP(=O)(O)OP(=O)(O)O)[C@@H](O)[C@H]2O)c(=O)[nH]1 [[^3H]UTP] ?
Out: 14
